# MEASURED ON: human GPR119 (hGPR119) (Homo sapiens, UniProt Q8TDV5)
# Construct: expressed in transfected cells
# PROCEDURE TEXT: cAMP accumulation assay (cAMP Gs dynamic HTRF kit)
# Format: cell-based
# PROTOCOL CONDITIONS: 1 h; CHO-K1 cells stably expressing hGPR119; % activity normalized to Max/Min controls; 4-parameter fit
READOUT TYPE: Emax

Problem: Given the entry O=C(Cc1ccc(OCCCC2CCN(c3ncc(Cl)cn3)CC2)cc1F)NCCCS(=O)(=O)O [Example 11] , report its measured Emax.
Solution: ≥ 130%

Problem: Given the entry O=C(NC[C@H](O)[C@@H](O)[C@H](O)[C@H](O)CO)[C@H]1CCN(C(=O)Cc2c(F)cc(OCCCC3CCN(c4ncc(Cl)cn4)CC3)cc2F)C1 [Example 128] , report its measured Emax.
Solution: ≥ 130%

Problem: Given the entry O=C(NC(CO)(CO)CO)C1CN(C(=O)Cc2c(F)cc(OCCCC3CCN(c4ncc(Cl)cn4)CC3)cc2F)C1 [Example 26] , report its measured Emax.
Solution: ≥ 130%

Problem: Given the entry CCc1cnc(N2CCC(CCCOc3cc(F)c(CC(=O)N4CC(CNCC(O)(CO)CO)C4)c(F)c3)CC2)nc1 [Example 67] , report its measured Emax.
Solution: 100 to 130%

---

# MEASURED ON: human GPR119 (hGPR119) (Homo sapiens)
# Sequence (Q8TDV5 1-335): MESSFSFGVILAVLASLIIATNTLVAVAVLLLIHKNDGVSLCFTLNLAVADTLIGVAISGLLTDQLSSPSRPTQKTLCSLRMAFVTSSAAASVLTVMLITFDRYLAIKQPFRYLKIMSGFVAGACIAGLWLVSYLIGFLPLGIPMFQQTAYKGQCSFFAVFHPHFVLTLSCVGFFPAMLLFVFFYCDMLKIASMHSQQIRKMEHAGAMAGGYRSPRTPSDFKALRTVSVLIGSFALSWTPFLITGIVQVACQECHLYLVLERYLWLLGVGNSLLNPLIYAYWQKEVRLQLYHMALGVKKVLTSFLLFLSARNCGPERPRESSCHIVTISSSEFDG
# PROCEDURE TEXT: cAMP accumulation assay (cAMP Gs dynamic HTRF kit)
# PROTOCOL CONDITIONS: CHO-K1 cells stably expressing hGPR119; cAMP accumulation; 4-parameter fit
READOUT TYPE: EC50

Problem: Query the reported EC50 for human GPR119 (hGPR119) (Homo sapiens); item: `O=C(Cc1ccc(OCCCC2CCN(c3ncc(Cl)cn3)CC2)cc1F)N1CC(CO)(CO)C1`
Solution: ≤ 100 nM

Problem: Query the reported EC50 for human GPR119 (hGPR119) (Homo sapiens); item: COCc1cnc(N2CCC([C@H]3C[C@H]3CCOc3ccc(CC(=O)N4CC(CNC[C@H](O)[C@@H](O)[C@H](O)[C@H](O)CO)C4)c(F)c3)CC2)nc1 (mixture of isomers)
Solution: 100 to 1000 nM

Problem: Query the reported EC50 for human GPR119 (hGPR119) (Homo sapiens); item: `O=C(Cc1ccc(OCCCC2CCN(c3ncc(Cl)cn3)CC2)cc1F)NCCC(=O)NC(CO)(CO)CO`
Solution: 100 to 1000 nM

Problem: Query the reported EC50 for human GPR119 (hGPR119) (Homo sapiens); item: `COCc1cnc(N2CCC(CCCOc3cc(F)c(CC(=O)N4CC[C@@H](CNCC(O)(CO)CO)C4)c(F)c3)CC2)nc1`
Solution: ≤ 100 nM

Problem: Query the reported EC50 for human GPR119 (hGPR119) (Homo sapiens); item: `COCc1cnc(N2CCC(CCCOc3cc(F)c(CC(=O)N4CC[C@@H](CNC[C@H](O)[C@@H](O)[C@H](O)[C@H](O)CO)C4)c(F)c3)CC2)nc1`
Solution: ≤ 100 nM

Problem: Query the reported EC50 for human GPR119 (hGPR119) (Homo sapiens); item: `O=C(NC[C@H](O)[C@@H](O)[C@H](O)[C@H](O)CO)[C@H]1CCN(C(=O)Cc2c(F)cc(OCCCC3CCN(c4ncc(Cl)cn4)CC3)cc2F)C1`
Solution: ≤ 100 nM

Problem: Query the reported EC50 for human GPR119 (hGPR119) (Homo sapiens); item: `O=C(Cc1ccc(COCC2CC3(CCN(c4ncc(Cl)cn4)CC3)C2)cc1F)N1CC(CNC[C@H](O)[C@@H](O)[C@H](O)[C@H](O)CO)C1`
Solution: 1000 to 10000 nM

---

# MEASURED ON: human GPR119 (hGPR119) (Homo sapiens, UniProt Q8TDV5)
# PROCEDURE TEXT: cAMP accumulation assay (cAMP Gs dynamic HTRF kit)
# PROTOCOL CONDITIONS: CHO-K1 cells stably expressing hGPR119; cAMP accumulation; 4-parameter fit
Would you mind telling me the reported EC50 of each entry?

Problem: Given the entry `O=C(Cc1ccc(OCCCC2CCN(c3ncc(Cl)cn3)CC2)cn1)N1CC(CNC[C@H](O)[C@@H](O)[C@H](O)[C@H](O)CO)C1` , report its measured EC50.
Solution: 1000 to 10000 nM

Problem: Given the entry COc1cnc(N2CCC(CCCOc3ccc(CC(=O)N4CC(CNC[C@H](O)[C@@H](O)[C@H](O)[C@H](O)CO)C4)c(F)c3)CC2)nc1 (racemic) , report its measured EC50.
Solution: 100 to 1000 nM

Problem: Given the entry `O=C(Cc1ccc(OCCCC2CCN(c3ncc(Cl)cn3)CC2)cc1F)NCCCC(=O)NC(CO)(CO)CO` , report its measured EC50.
Solution: 100 to 1000 nM

Problem: Given the entry COCC1(CNC[C@H](O)[C@@H](O)[C@H](O)[C@H](O)CO)CCN(C(=O)Cc2ccc(OCCCC3CCN(c4ncc(Cl)cn4)CC3)cc2F)C1 (stereo partly drawn) , report its measured EC50.
Solution: ≤ 100 nM

Problem: Given the entry COCc1cnc(N2CCC(CCCOc3cc(F)c(CC(=O)N4CCC(O)(CNCC(CO)(CO)CO)C4)c(F)c3)CC2)nc1 (stereo not drawn) , report its measured EC50.
Solution: ≤ 100 nM

Problem: Given the entry COCC1(C(=O)NC[C@H](O)[C@@H](O)[C@H](O)[C@H](O)CO)CCN(C(=O)Cc2ccc(OCCCC3CCN(c4ncc(Cl)cn4)CC3)cc2F)C1 (stereo partly drawn) , report its measured EC50.
Solution: ≤ 100 nM

Problem: Given the entry `CCOc1cnc(N2CCC(CCCOc3cc(F)c(CC(=O)N4CC[C@@H](CNCC(CO)(CO)CO)C4)c(F)c3)CC2)nc1` , report its measured EC50.
Solution: ≤ 100 nM

Problem: Given the entry `O=C(Cc1ccc(OCCCC2CCN(c3ncc(Cl)cn3)CC2)cc1F)N1CC[C@H](CNC[C@H](O)[C@H](O)[C@H](O)CO)C1` , report its measured EC50.
Solution: ≤ 100 nM

Problem: Given the entry `CCOc1cnc(N2CCC(CCCOc3ccc(CC(=O)N4CC[C@@H](CNCC(O)(CO)CO)C4)c(F)c3)CC2)nc1` , report its measured EC50.
Solution: ≤ 100 nM

Problem: Given the entry `O=C(Cc1c(F)cc(OCCCCC2CCN(c3ncc(Cl)cn3)CC2)cc1F)N1CC(CNC[C@H](O)[C@@H](O)[C@H](O)[C@H](O)CO)C1` , report its measured EC50.
Solution: 100 to 1000 nM

Problem: Given the entry `O=C(Cc1ccc(COCCCC2CCN(c3ncc(Cl)cn3)CC2)cc1F)N1CC(CNC[C@H](O)[C@@H](O)[C@H](O)[C@H](O)CO)C1` , report its measured EC50.
Solution: 100 to 1000 nM

Problem: Given the entry `O=C(NCC(O)(CO)CO)C1CN(C(=O)Cc2ccc(OCCCC3CCN(c4ncc(Cl)cn4)CC3)cc2F)C1` , report its measured EC50.
Solution: ≤ 100 nM

---

# MEASURED ON: human GPR119 (hGPR119) (Homo sapiens, UniProt Q8TDV5)
# Construct: expressed in transfected cells
# PROCEDURE TEXT: cAMP accumulation assay (cAMP Gs dynamic HTRF kit)
# Format: cell-based
# PROTOCOL CONDITIONS: 1 h; CHO-K1 cells stably expressing hGPR119; % activity normalized to Max/Min controls; 4-parameter fit
# Protocol: CHO-K1 cells stably expressing human GPR119 (hGPR119) were prepared by transfection of a GPR119-carrying plasmid using Lipofectamine 2000 (following manufacturer instructions). […] Assay-ready frozen (ARF) cells were prepared and used throughout the study. […] RT-FRET was measured using a ClarioSTAR plate reader, calculating the ratio between emissions at 665 nm and 620 nm (HTRF ratio). […] EC50 and Max activity values were determined using a standard 4-parameter fit.
Would you mind telling me the reported Emax of each entry?

Problem: Given the entry O=C(Cc1ccc(OCCCC2CCN(c3ncc(Cl)cn3)CC2)cc1F)NCCCCCNC(CO)CO [Example 1] , report its measured Emax.
Solution: ≥ 130%

Problem: Given the entry COc1cnc(N2CCC(CCCOc3ccc(CC(=O)N4CC(CNC[C@H](O)[C@@H](O)[C@H](O)[C@H](O)CO)C4)c(F)c3)CC2)nc1 (racemic) [Example 79] , report its measured Emax.
Solution: 100 to 130%

Problem: Given the entry O=C(CC1CN(C(=O)Cc2ccc(OCCCC3CCN(c4ncc(Cl)cn4)CC3)cc2F)C1)NCCS(=O)(=O)O [Example 176] , report its measured Emax.
Solution: 100 to 130%

Problem: Given the entry CCOc1cnc(N2CCC(CCCOc3cc(F)c(CC(=O)N4CC[C@H](C(=O)NC[C@H](O)[C@@H](O)[C@H](O)[C@H](O)CO)C4)c(F)c3)CC2)nc1 [Example 130] , report its measured Emax.
Solution: 100 to 130%

Problem: Given the entry O=C(NCCCCS(=O)(=O)O)C1CN(C(=O)Cc2ccc(OCCCC3CCN(c4ncc(Cl)cn4)CC3)cc2F)C1 [Example 173] , report its measured Emax.
Solution: 100 to 130%
